Biological target: EnuR (Ruegeria pomeroyi, UniProt Q5LUA6)
Construct: gene gntR; full-length EnuR with C-terminal Strep-tag-II, PLP-containing
Sequence (Q5LUA6 1-464): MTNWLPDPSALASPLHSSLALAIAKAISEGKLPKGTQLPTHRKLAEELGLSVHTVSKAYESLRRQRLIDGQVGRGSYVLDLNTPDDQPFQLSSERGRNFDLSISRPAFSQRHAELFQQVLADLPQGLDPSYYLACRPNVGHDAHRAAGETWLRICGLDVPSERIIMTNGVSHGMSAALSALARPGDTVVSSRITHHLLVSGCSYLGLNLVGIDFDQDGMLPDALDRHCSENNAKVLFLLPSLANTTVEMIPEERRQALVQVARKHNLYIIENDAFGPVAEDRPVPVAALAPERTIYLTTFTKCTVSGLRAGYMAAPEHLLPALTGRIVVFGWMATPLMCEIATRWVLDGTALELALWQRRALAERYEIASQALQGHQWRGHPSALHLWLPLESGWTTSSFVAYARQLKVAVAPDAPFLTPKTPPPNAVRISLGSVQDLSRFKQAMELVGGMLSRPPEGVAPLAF
Assay: microscale thermophoresis
Assay type: binding
measure.name: pKd
Scale: pKd equals -log10([C]), with [C] in mol/L.

Query: Can you look up the measured pKd of CC(=O)N[C@H](C(=O)O)[C@@H](O)CN [hydroxy-α-ADABA] for me?
Result: 6.37

###

test system: EnuR (C-terminal Strep-tag II fusion, PLP-bound) (Ruegeria pomeroyi DSS-3); test: MST; settings: PLP-containing EnuR, 200 nM; MST: 10 mM Tris-HCl pH 7.5, 150 mM NaCl, 0.07% Tween20, 21 C; 200 nM NT-647-labeled EnuR titrated with DNA
measure.name: Kd (nM)
Supply the numeric figure in nM, leaving out any unit text.

Query: Give recorded Kd with EnuR (C-terminal Strep-tag II fusion, PLP-bound) (Ruegeria pomeroyi DSS-3) for the following sequence: TAACATTGTCGCGCGACAATAAAAAAATTGACATGCAGTACAATTCCC (double strand) [MST BS WT 48 bp promoter/operator fragment]
Result: 1900

The reported numbers originate from paper PMC8739950.
